All values here come from paper PMC6641592.

biological target: TLP-ste (C288L/N181C) (Geobacillus stearothermophilus, UniProt P06874, C520L/N413C); settings: correction: FRET efficiency only; vmax divided by enzyme concentration
Parameter: kcat. Scope: all listed entries.
Measured Endpoint: kcat

{"Substance": "CF-PAGLAC(AF674)-NH2 [4aa-AF647]", "Measured Endpoint": "kcat", "Result": "0.20 s⁻¹"}
{"Substance": "CF-PSVAGLAGGC(AF647)-NH2 [8aa-AF647]", "Measured Endpoint": "kcat", "Result": "1.29 s⁻¹"}
{"Substance": "CF-PVAGLAGC(Cy5)-NH2 [6aa-Cy5]", "Measured Endpoint": "kcat", "Result": "1.87 s⁻¹"}
{"Substance": "CF-PAGLAC(Cy5)-NH2 [4aa-Cy5]", "Measured Endpoint": "kcat", "Result": "0.28 s⁻¹"}
{"Substance": "CF-PSVAGLAGGC(Cy5)-NH2 [8aa-Cy5]", "Measured Endpoint": "kcat", "Result": "3.73 s⁻¹"}

* * *

target: TLP-ste (C288L/N181C) (Geobacillus stearothermophilus, UniProt P06874, C520L/N413C); conditions: corrected for IFE and FRET efficiency; vmax divided by enzyme concentration (1 nM)
Measured Endpoint: kcat

{"Substance": "CF-PVAGLAGC(Cy5)-NH2 [6aa-Cy5]", "Subject Of Test": "TLP-ste (C288L/N181C) (Geobacillus stearothermophilus, UniProt P06874, C520L/N413C)", "Result": "2.96 s^–1"}
{"Substance": "CF-PSVAGLAGGC(AF647)-NH2 [8aa-AF647]", "Subject Of Test": "TLP-ste (C288L/N181C) (Geobacillus stearothermophilus, UniProt P06874, C520L/N413C)", "Result": "5.70 s^–1"}
{"Substance": "CF-PAGLAC(AF674)-NH2 [4aa-AF647]", "Subject Of Test": "TLP-ste (C288L/N181C) (Geobacillus stearothermophilus, UniProt P06874, C520L/N413C)", "Result": "0.70 s^–1"}
{"Substance": "CF-PSVAGLAGGC(Cy5)-NH2 [8aa-Cy5]", "Subject Of Test": "TLP-ste (C288L/N181C) (Geobacillus stearothermophilus, UniProt P06874, C520L/N413C)", "Result": "7.82 s^–1"}
{"Substance": "CF-PAGLAC(Cy5)-NH2 [4aa-Cy5]", "Subject Of Test": "TLP-ste (C288L/N181C) (Geobacillus stearothermophilus, UniProt P06874, C520L/N413C)", "Result": "0.37 s^–1"}

* * *

biological target: TLP-ste (C288L/N181C) (Geobacillus stearothermophilus, UniProt P06874, C520L/N413C); conditions: correction: IFE only; vmax divided by enzyme concentration

{"Substance": "CF-PAGLAC(AF674)-NH2 [4aa-AF647]", "kcat": "0.69 s⁻¹"}
{"Substance": "CF-PVAGLAGC(Cy5)-NH2 [6aa-Cy5]", "kcat": "2.87 s⁻¹"}
{"Substance": "CF-PAGLAC(Cy5)-NH2 [4aa-Cy5]", "kcat": "0.35 s⁻¹"}
{"Substance": "CF-PSVAGLAGGC(AF647)-NH2 [8aa-AF647]", "kcat": "5.47 s⁻¹"}
{"Substance": "CF-PSVAGLAGGC(Cy5)-NH2 [8aa-Cy5]", "kcat": "7.50 s⁻¹"}
